A short record of IC50 observed with Cyclin-dependent kinase 4 (Homo sapiens) follows.
Sequence (P11802 whole entry): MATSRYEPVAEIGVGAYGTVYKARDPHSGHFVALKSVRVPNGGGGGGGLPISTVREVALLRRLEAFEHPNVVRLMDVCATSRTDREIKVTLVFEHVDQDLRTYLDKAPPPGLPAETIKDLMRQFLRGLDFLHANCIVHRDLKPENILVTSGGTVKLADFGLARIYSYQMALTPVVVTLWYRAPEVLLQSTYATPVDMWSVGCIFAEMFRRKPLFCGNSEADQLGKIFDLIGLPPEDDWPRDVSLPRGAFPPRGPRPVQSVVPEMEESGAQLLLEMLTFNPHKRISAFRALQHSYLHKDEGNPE
property_name: IC50 (nM)

// known answers, use as guide
[[record]]
compound = "COc1cc(F)c(F)cc1-c1cc(NC(=O)[C@H]2CCC[C@@H](NC(=O)CO)C2)ncc1F [US12570607, Example 68]"
property_name = "IC50"
number = 402

[[record]]
compound = "COc1cc(F)ccc1-c1cc(NC(=O)[C@H]2CCC[C@@H](NS(C)(=O)=O)C2)ncc1F [US12570607, Example 25]"
property_name = "IC50"
number = 811

[[record]]
compound = "COc1cc(F)ccc1-c1cc(NC(=O)[C@H]2CCC[C@@H](NC(=O)CO)C2)ncc1F [US12570607, Example 45]"
property_name = "IC50"
number = 785


P: COc1cc(F)ccc1-c1cc(NC(=O)[C@H]2CCC[C@@H](NC(=O)c3ccccn3)C2)ncc1F [US12570607, Example 43]
Q: COc1cc(F)c(F)cc1-c1cc(NC(=O)[C@H]2CCC[C@@H](NC(=O)C3(C#N)CC3)C2)ncc1F [US12570607, Example 67]
Select the item whose IC50 value is smaller, choosing between P and Q . State your choice using its label.
Q
(Q: 268 nM, P: 582 nM)

a: COc1cc(F)ccc1-c1cc(NC(=O)[C@H]2CCC[C@@H](NC(=O)[C@H](C)O)C2)ncc1F [US12570607, Example 48]
b: COc1cc(F)ccc1-c1cc(NC(=O)[C@H]2CCC[C@@H](NC(=O)CC#N)C2)ncc1F [US12570607, Example 32]
Pick one: a or b . Which has the bigger IC50 number? State your choice using its label.
a

* * *

A short record of IC50 observed with Cyclin-dependent kinase 6 (Homo sapiens, UniProt Q00534) follows.
Sequence (Q00534 whole entry): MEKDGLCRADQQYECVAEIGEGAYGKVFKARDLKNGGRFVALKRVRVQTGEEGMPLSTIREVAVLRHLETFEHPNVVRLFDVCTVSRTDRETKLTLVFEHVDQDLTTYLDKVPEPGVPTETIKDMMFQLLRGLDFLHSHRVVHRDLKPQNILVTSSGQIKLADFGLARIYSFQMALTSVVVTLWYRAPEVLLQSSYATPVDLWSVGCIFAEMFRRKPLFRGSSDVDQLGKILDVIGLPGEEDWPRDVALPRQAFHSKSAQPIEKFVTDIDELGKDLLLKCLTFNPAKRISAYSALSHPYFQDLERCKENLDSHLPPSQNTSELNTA
property_name: IC50 (µM)

// known answers, use as guide
[[record]]
compound = "CNC(=O)N[C@@H]1CCC[C@H](C(=O)Nc2cc(-c3ccc(F)cc3OC)c(F)cn2)C1 [US12570607, Example 37]"
measurement_unit = "µM"
number = 2.64

[[record]]
compound = "COc1ccccc1-c1cc(NC(=O)[C@H]2CCC[C@@H](NC(C)=O)C2)ncc1F [US12570607, Example 17]"
measurement_unit = "µM"
number = 3.17

[[record]]
compound = "COc1cc(F)ccc1-c1cc(NC(=O)[C@H]2CCC[C@@H](NC(=O)CC#N)C2)ncc1F [US12570607, Example 32]"
measurement_unit = "µM"
number = 2.45

[[record]]
compound = "COc1cc(F)ccc1-c1cc(NC(=O)C2CCCC(NC(C)=O)C2)ncc1F (centres undefined) [US12570607, Example 3]"
measurement_unit = "µM"
number = 1.39


a: COC(=O)N[C@@H]1CCC[C@H](C(=O)Nc2cc(-c3ccc(F)cc3OC)c(F)cn2)C1 [US12570607, Example 36]
b: CC(=O)N[C@@H]1CCC[C@H](C(=O)Nc2cc(-c3cccc4ccoc34)c(F)cn2)C1 [US12570607, Example 19]
c: CC(=O)N[C@@H]1CCC[C@H](C(=O)Nc2cc(-c3ccc(F)cc3OC(C)C)c(F)cn2)C1 [US12570607, Example 8]
d: COc1cc(F)ccc1-c1cc(NC(=O)[C@H]2CCC[C@@H](NC(=O)C(F)(F)F)C2)ncc1F [US12570607, Example 42]
Please produce an ascending ranking of these compounds based on IC50. Respond with the label ranking, as requested.
b, d, c, a
(b: 0.297 µM, d: 1.01 µM, c: 1.77 µM, a: 3.37 µM)
